# TARGET: human TLR8 (Homo sapiens, UniProt Q9NR97)
# Sequence (Q9NR97 27-1041): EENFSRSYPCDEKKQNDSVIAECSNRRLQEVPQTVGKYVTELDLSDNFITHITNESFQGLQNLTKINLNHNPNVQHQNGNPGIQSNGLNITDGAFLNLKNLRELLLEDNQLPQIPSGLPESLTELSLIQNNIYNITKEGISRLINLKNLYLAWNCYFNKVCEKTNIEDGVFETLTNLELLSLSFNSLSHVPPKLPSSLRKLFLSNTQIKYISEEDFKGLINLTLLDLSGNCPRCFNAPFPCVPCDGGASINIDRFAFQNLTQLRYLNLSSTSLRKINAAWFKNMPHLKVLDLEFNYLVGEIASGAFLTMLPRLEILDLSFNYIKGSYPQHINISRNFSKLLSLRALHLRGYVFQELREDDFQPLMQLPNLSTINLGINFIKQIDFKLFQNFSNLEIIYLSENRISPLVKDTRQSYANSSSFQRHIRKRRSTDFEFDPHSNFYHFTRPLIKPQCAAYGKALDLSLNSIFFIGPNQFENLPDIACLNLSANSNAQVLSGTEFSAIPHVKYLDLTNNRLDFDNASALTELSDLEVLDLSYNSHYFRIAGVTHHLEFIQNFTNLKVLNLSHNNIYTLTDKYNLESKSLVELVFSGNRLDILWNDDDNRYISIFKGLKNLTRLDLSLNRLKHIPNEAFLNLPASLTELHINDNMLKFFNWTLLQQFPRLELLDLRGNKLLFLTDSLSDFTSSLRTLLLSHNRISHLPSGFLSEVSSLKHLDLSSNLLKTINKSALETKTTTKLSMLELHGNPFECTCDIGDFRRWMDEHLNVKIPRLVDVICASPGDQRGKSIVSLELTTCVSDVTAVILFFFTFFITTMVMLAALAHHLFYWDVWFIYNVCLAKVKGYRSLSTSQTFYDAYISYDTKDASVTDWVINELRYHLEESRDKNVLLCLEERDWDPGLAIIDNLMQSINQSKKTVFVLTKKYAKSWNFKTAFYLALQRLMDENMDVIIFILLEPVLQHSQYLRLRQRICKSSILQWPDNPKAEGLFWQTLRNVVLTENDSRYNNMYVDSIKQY
# TEST_DETAILS: TLR8 inhibition reporter assay (HEK-Blue SEAP)
# REPORTED_CONDITIONS: HEK-Blue cells overexpressing human TLR8, stimulated with R848 15.9 μM, 22 hour incubation
READOUT_NAME: IC50

Which IC50 is reported for this compound? "Cc1cc(-c2cc(C)c3ncnn3c2)cc2[nH]nc(C3CCN(C(=O)CN(C)C)CC3)c12" 14.1 nM

# query: IC50 of entry Cc1cc(-c2ccc3c(C4CCC(N(C)C)CC4)c[nH]c3c2)cn2ncnc12 (single isomer, unassigned) [Example 14] 115 nM

Bench note: what IC50 did "Cc1cc(-c2cc(C)c3ncnn3c2)cc2[nH]nc(C3CCN(C4CCOCC4)CC3)c12" show? 252 nM

Report IC50 for "Cc1cc2c(C3CCN(CCC#N)CC3)n[nH]c2cc1-c1cc(C)c2ncnn2c1" please. 2.3 nM
